# merged literature set: IC50 with UniProtKB P35968

Study these solved cases before continuing.
COc1cc(OC)cc(N(CCO)c2ccc3ncc(C(=O)Nc4cnn(C)c4)nc3c2)c1 ... > 1000 nM
COc1cc2nccc(Oc3ccc(NC(=O)C4(C(=O)O)CC4)cc3)c2cc1OC ... > 5000 nM
Cc1cccc(Cl)c1C(=O)NC[C@@H]1[C@H]2CN(c3ccc(-c4cc(-c5cnn(C)c5)cn5ncc(C#N)c45)cn3)C[C@@H]12 ... ≤ 10 nM
CCC(C)S(=O)(=O)Nc1ccc(F)c(C(=O)c2c[nH]c3ncc(OC)cc23)c1F (stereo not shown) ... ≤ 10000 nM
COc1cc(OC)cc(N(CC2CC2)c2ccc3ncc(-c4cn[nH]n4)nc3c2)c1 ... > 1000 nM
CC(C)(O)COc1cc(-c2ccc(N3CCC(N)(C(=O)N4CCc5ccccc54)CC3)nc2)c2c(C#N)cnn2c1 ... 17 nM
O=C(c1c(F)ccc(NS(=O)(=O)C2CCC2)c1F)c1c[nH]c2ncc(Cl)cc12 ... ≤ 10000 nM
Cn1cc(-c2nccc(Oc3cccc(NC(=O)Nc4ccc(C(F)(F)F)cc4)c3)n2)cn1 ... ≤ 10000 nM

Look up IC50 for the entries below, preserving their order.
1. COc1cc2nccc(Oc3ccc(NC(=O)c4c(C)n(C)c(C)c(/C=C/C5CC5)c4=O)cc3F)c2nc1OC
2. CCOc1ccn(Cc2ccccc2)c(=O)c1C(=O)Nc1ccc(Oc2ccnc3cc(OC)c4c(c23)OCCO4)c(F)c1

> 300 nM
500 to 5000 nM

----------
pIC50: −log10 of the molar value.
# merged literature set: pIC50 with Vascular endothelial growth factor receptor 2 (Homo sapiens, UniProt P35968)

Study these solved cases before continuing.
Cc1ccc(F)c(NC(=O)Nc2cccc(C#Cc3cccc4[nH]nc(N)c34)c2)c1 ... 7.68
Nc1nc(N[C@H](CO)CSCc2ccccc2)cc(-c2cc(-c3ccc(O)cc3)ccc2O)n1 ... > 6.00
COc1ccc(NC(=O)Nc2cccc(Oc3ccc4nccnc4c3)c2)cc1 ... > 7.00
O=C(Nc1ccc(Oc2ccnc(NC(=O)C3CC3)c2)cc1)Nc1ccc(F)c(C(F)(F)F)c1 ... 7.98
O=C(O)CCC(NCc1ccc(-c2ccc3ncnc(Nc4ccc(OCc5cccc(F)c5)c(Cl)c4)c3c2)o1)C(=O)O (stereo not shown) ... > 5.00

Look up pIC50 for the entries below, preserving their order.
1. CCOc1ccn(-c2ccc(F)cc2)c(=O)c1C(=O)Nc1ccc(Oc2ncnc3cc(OCCCN4CCOCC4)c4c(c23)OCCO4)c(F)c1
2. c1ccc(Nc2nc3c(-c4cccnc4)nccn3n2)cc1
3. COc1cc2nccc(Oc3ccc(N(C)C(=O)NC4CC4)cc3)c2cc1C(N)=O
4. Cc1nc(NC(=O)Nc2ccc(Cl)c(C(F)(F)F)c2)ccc1Oc1cc(NC(=O)C2CC2)ncn1
5. COc1ccc(N2Cc3cnc(Nc4ccc(O)cc4)nc3N(c3ccccc3)C2=O)cc1
6. C=CC(=O)Nc1cc2c(Nc3cc(Cl)c(Br)cc3F)ncnc2cc1OCCNC(C)=O
7. CCN(CC)CCNC(=O)c1c(C)[nH]c2c1CCC/C2=C1/C(=O)Nc2ccc(NC(C)=O)cc21
8. O=C(Nc1cccc(Oc2ccnc(-c3nnco3)c2)c1)c1cccc(N2CCOCC2)c1

1. 6.30 to 7.30
2. 5.52 to 6.52
3. 7.37
4. 7.87
5. 7.54
6. 6.38
7. 8.10
8. ≥ 5.00

Look up pIC50 for the entries below, preserving their order.
1. Cc1ccc(Oc2ccnc(NC(=O)C3CC3)c2)cc1NC(=O)Nc1cc(F)cc(C(F)(F)F)c1
2. O=C(Nc1cccc(C(=O)c2ccc3ncc(N4CCOCC4)nc3c2)c1)Nc1cccc(C(F)(F)F)c1
3. CC1(O)CC2(CN(c3cc(-c4ccc(N5CCC(C)(NC(=O)c6ncccc6Cl)CC5)nc4)c4c(C#N)cnn4c3)C2)C1
4. COc1cc(-c2cc3nccc(Nc4ccc5c(c4)NC(=O)C(F)(F)O5)c3o2)cc(OC)c1OC
5. COC(=O)Nc1ccc(F)c(C(O)c2c[nH]c3ncc(-c4cccnc4)cc23)c1F (stereo not shown)
6. COc1cccc(NC(=O)Nc2ccc(Nc3ncnc4cc(OC)c5c(c34)OCCO5)cc2)c1
7. COc1cc2nccc(Oc3ccc(NC(=O)c4cn(C5CC5)cc(-c5ccc(F)cc5)c4=O)cc3F)c2nc1OC
8. CCCS(=O)(=O)Nc1ccc(F)c(C(=O)c2c[nH]c3ncc(-c4ccc(N(C)C)nc4)cc23)c1F

[8.02, "> 7.00", 8.05, "> 6.52", "≥ 5.00", "6.30 to 7.30", "> 7.00", "≥ 5.00"]

Look up pIC50 for the entries below, preserving their order.
1. O=C(Nc1cccc(Oc2cc(-c3ccc[nH]3)ncn2)c1)Nc1ccc(Cl)c(C(F)(F)F)c1
2. COCCOc1cc2ncnc(Oc3ccc(NC(=O)c4c(C)nc(C)c(OC)c4O)cc3F)c2nc1OC
3. COc1cc2nccc(Oc3ccc(NC(=O)c4cn(CCF)c(C)c(C5=CCCCC5)c4=O)cc3F)c2nc1OC
4. O=C(Nc1ccc(C#Cc2ccc3nc(NC(=O)Nc4ccc(F)c(Cl)c4)cn3n2)cc1)Nc1ccc(F)c(Cl)c1
5. CCOc1ccn(-c2ccc(F)cc2)c(=O)c1C(=O)Nc1ccc(Oc2ccnc3ccc4c(c23)OCCO4)cc1F
6. COCCOc1cc2ncnc(Oc3ccc(NC(=O)Nc4ccc(Cl)c(C(F)(F)F)c4)cn3)c2c2c1OCCO2

["≥ 5.00", "≥ 7.00", "≥ 7.00", 5.53, "5.30 to 6.30", "6.30 to 7.30"]

Record request: pIC50 value, item CCCS(=O)(=O)Nc1ccc(F)c(C(=O)c2c[nH]c3ncc(-c4c(-c5ccccc5)noc4C)cc23)c1F ≥ 5.00

----------
# merged literature set: pIC50 with UniProt:P35968
pIC50: −log10 of the molar value.

Study these solved cases before continuing.
COc1cc(OC)cc(N(CCNC(C)C)c2ccc3ncc(-c4ccnc(C(=O)NCCCN)c4)nc3c2)c1 ... 6.57
COc1ccnc2[nH]cc(C(=O)c3c(F)ccc(NS(=O)(=O)c4ccccc4F)c3F)c12 ... ≥ 5.00
Nc1nc(N)nc(-c2cc(-c3ccc(O)cc3)ccc2O)n1 ... > 6.00
CCCS(=O)(=O)Nc1ccc(F)c(C(=O)c2c[nH]c3ncc(CCC(=O)NOC)cc23)c1F ... ≥ 5.00
COc1cc(Nc2nc3c(NCCN)nccn3n2)cc(OC)c1 ... 4.30 to 5.52

Record request: pIC50 value, item COc1cc2c(Oc3ccc(NC(=O)C4(C(=O)Nc5ccc(F)cc5)CC4)cc3F)ccnc2cc1OCCCCSC(C)=O 7.10

----------
# merged literature set: IC50 with UniProt P35968

Study these solved cases before continuing.
CS(=O)(=O)c1cc(NC(=O)Nc2ccc(Oc3ccnc(NC(=O)C4CC4)c3)cn2)cc(C(F)(F)F)c1 ... 6.6 nM
C[C@H](Nc1cncc(-c2ccc(CN3CCN(C)CC3)cc2)n1)c1cccc(NC(=O)c2cccc(C(F)(F)F)c2)c1 ... < 100 nM
Cc1cc(NC(=O)Nc2cc(Oc3cc(-c4cnn(C)c4)ncn3)ccc2F)no1 ... ≤ 10000 nM
N#Cc1ccnc2[nH]cc(C(=O)c3c(F)ccc(NS(=O)(=O)c4ccc(F)cc4F)c3F)c12 ... ≤ 10000 nM

Write down the reported IC50 of CCOc1ccn(-c2ccc(F)cc2)c(=O)c1C(=O)Nc1ccc(Oc2ccnc3cc(OCCCN4CCN(C(C)=O)CC4)c4c(c23)OCCO4)c(F)c1 , test system: UniProt P35968. ≤ 50 nM

----------
# merged literature set: IC50 with Vascular endothelial growth factor receptor 2 (Homo sapiens)

Study these solved cases before continuing.
CC(C)n1cc(C(=O)Nc2ccc(Oc3ccnc4cc(OCCCN5CCCC5)c5c(c34)OCCO5)c(F)c2)c(=O)n(-c2ccc(F)cc2)c1=O ... 50 to 500 nM
[2H]C1([2H])C([2H])([2H])C2(COc3cccc(-c4cn([C@H]5C[C@@H](N6CC[S+]([O-])CC6)C5)c5ncnc(N)c45)c3F)OC1([2H])C([2H])([2H])C2([2H])[2H] ... > 10000 nM
CN1CCN(c2ccc(Nc3ncc(-c4cccc(O)c4)o3)cc2)CC1 ... < 1000 nM

For the next question, use this compound.
Record request: IC50 value, item Nc1nc(-c2cccc(CO)c2)cc(-c2cc(-c3ccc(O)cc3)ccc2O)n1 < 1000 nM

----------
pIC50: −log10 of the molar value.
# merged literature set: pIC50 with Vascular endothelial growth factor receptor 2 (Homo sapiens)

O=C(Nc1ccc(Oc2ncnc3cc(OCCCN4CCOCC4)c4c(c23)OCCO4)cc1)Nc1cc(C(F)(F)F)ccc1F ... > 7.30

Look up pIC50 for the entries below, preserving their order.
1. Cc1ccccc1-c1c[nH]c2ncccc12
2. C#C[C@](C)(O)COc1cc(-c2ccc(N3CC4CC(C3)N4Cc3ccc(OC)nc3)nc2)c2c(C#N)cnn2c1
3. O=C(Nc1cccc(Oc2cc(-c3nnco3)ncn2)c1)Nc1ccc(Cl)c(C(F)(F)F)c1
4. c1cnc2[nH]cc(-c3ccoc3)c2c1
5. COc1cc(C2=C(c3c[nH]c4cccnc34)C(=O)NC2=O)cc(OC)c1OC

1. ≥ 5.00
2. 7.35
3. ≥ 5.00
4. ≥ 5.00
5. 6.43
